molecular target: T1, endogenous MC1-R of B-16 mouse melanoma cells (mouse, UniProt Q01727 1-315); assay: competitive binding vs [I125]-NDP-α-MSH
T1 construct: whole, on cells; membrane homogenates; also called mouse B16 MC1-R
T1 sequence (Q01727 whole entry): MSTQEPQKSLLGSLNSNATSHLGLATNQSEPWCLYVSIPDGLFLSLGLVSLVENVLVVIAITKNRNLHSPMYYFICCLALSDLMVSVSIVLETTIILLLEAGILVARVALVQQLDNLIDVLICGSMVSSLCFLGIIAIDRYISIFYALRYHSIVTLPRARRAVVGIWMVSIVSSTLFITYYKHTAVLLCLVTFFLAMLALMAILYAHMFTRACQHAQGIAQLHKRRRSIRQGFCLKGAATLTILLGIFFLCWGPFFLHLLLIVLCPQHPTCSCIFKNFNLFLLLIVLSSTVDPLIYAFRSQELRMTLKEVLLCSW
Bridge positions count the residues as written; N and C are the ends. Square brackets hold non-standard residues; d marks the D form.
Listing: Ki of selected binders
Numeric answer only, unit nM assumed.

| Binder | Ki / nM |
| --- | --- |
| Ac-RDQ[dF]RWK-NH2 (lactam 2-7, any difference is only in the drawings; also called peptide No. 32) [Ac-Arg-cyclo(Asp-Gln-D-Phe-Arg-Trp-Lys)-NH2] | 133 |

Entry Ac-RDH[dF]RWK-NH2 (lactam 2-7, also called peptide No. 1) [Ac-Arg-cyclo(Asp-His-D-Phe-Arg-Trp-Lys)-NH2] , Ki reported as 3
